Where do the numbers come from? From PubChem BioAssay (NCATS).

system: HeLa; test: Primary qHTS to identify gynecologic anti-cancer compounds using libraries of approved drugs and bioactive compounds (AID 1345084); conditions: Gynecologic cancer cell panel viability, ATPlite luminescence, 48 h; series mostly up to 57.5 µM; note: % is set by controls: 0 for no effect and ±100 for the full control effect; nearly all actives have a fitted effect of over 55% in size
Results filed as inconclusive are left out. Calls of active or inactive are those of the source. Calls come from the whole dose curve; as a rule, active = well fitted cell-killing curve with a large enough effect; inconclusive = small, poorly fitted or top-dose-only effect, or effect the other way; inactive = flat fitted curve, though single readings scatter.
measuredParameter: activity change, negative = cytotoxicity

Given CCC/C=C1\OC(=O)C2=C1CCC(O)C2O (stereo not drawn) , respond with its activity change, negative = cytotoxicity.
inactive

Using known records, supply activity change, negative = cytotoxicity for "C=C1C(=O)O[C@@H]2/C=C(\C)CC/C=C(\C(=O)O[C@@H]3O[C@H](CO)[C@@H](O)[C@H](O)[C@H]3O)CC[C@@H]12"
inactive

For the molecule "CC(/C=C/C=C(\C)C(=O)O[C@@H]1O[C@H](CO[C@@H]2O[C@H](CO)[C@@H](O)[C@H](O)[C@H]2O)[C@@H](O)[C@H](O)[C@H]1O)=C\C=C\C=C(C)\C=C\C=C(/C)C(=O)O[C@@H]1C[C@](O)(C(=O)O)C[C@@H](O)[C@H]1OC(=O)/C=C/c1ccc(O)c(O)c1" , give its reported activity change, negative = cytotoxicity.
2.81% [at 11.6 µM] (inactive)
